Provide the reported EC50 of each item.
molecular target: 5HT2B receptors (Homo sapiens); construct: expressed in transfected cells; host or cells: CHO-K1 cells; experiment: Human 5-HT2B functional assay in CHO-K1 cells (calcium flux, FLIPR); type: cell-based; settings: CHO-K1 cells over-expressing 5HT2B, calcium flux; read-out: EC50 (μM), 5-HT2B Agonist Activity
Sequence (P41595 whole entry): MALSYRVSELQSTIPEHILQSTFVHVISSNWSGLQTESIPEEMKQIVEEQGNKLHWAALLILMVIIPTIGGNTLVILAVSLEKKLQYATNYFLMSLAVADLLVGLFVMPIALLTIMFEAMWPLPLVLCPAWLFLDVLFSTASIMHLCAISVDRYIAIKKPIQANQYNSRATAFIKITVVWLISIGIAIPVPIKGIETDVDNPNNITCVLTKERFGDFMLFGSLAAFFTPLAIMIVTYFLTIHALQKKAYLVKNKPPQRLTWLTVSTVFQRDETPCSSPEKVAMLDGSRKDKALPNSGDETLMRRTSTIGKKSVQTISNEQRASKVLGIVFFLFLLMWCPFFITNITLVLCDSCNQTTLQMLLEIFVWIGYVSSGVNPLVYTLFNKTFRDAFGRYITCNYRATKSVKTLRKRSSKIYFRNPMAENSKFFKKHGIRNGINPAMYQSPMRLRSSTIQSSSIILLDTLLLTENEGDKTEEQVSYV
Numbers only here, please. The scale is µM.

Give recorded EC50 with 5HT2B receptors (Homo sapiens) for the following compound: Cn1cc(-c2ccc3c(c2)N2CCNCC2CC(=O)N3)cn1 (stereo not drawn) [Example 60] 3

Recall the recorded EC50 for Cc1cccc(CCOc2ccc3c(c2)N2CCNC[C@@H]2CC(=O)N3)c1 [Example 176] with 5HT2B receptors (Homo sapiens) and state it. 1

Lab request: please report EC50 under test system 5HT2B receptors (Homo sapiens) for Fc1ccccc1-c1ccc2c(c1)N1CCNC[C@@H]1CCO2 [Example 203] 2

Request: EC50, test system 5HT2B receptors (Homo sapiens), entry COc1cccc(-c2ccc3c(c2)N2CCNC[C@@H]2CCO3)c1 [Example 193] 1

Kindly state the measured EC50 obtained for C[C@H](Oc1ccc2c(c1)N1CCNCC1CC(=O)N2)c1ccccc1 (stereo partly drawn) [Example 154] with 5HT2B receptors (Homo sapiens). 0.7
